molecular target: human GR (Homo sapiens, UniProt P04150); assay: Transrepression Assay (GITAR), TNFα-β-lactamase reporter gene in U937 cells; format: cell-based; design: U937 cells contain an endogenous glucocorticoid receptor (GR); endogenous in cells; host or cells: U937 cells stably transfected with the TNF-α promoter/β-lactamase reporter only; settings: U-937; Table 1; U937 cells; activity repressed by 100 nM dexamethasone = 100%; read-out: Transrepression U937 Cells GITAR Emax (%)
Binary call on Emax: rule met from 70% upward, rule not met beneath that.

- Mol Smiles: "CC(C)CNC(=O)c1ccccc1CC[C@]1(O)CCC2=Cc3c(cnn3-c3ccc(F)cc3)C[C@@]21C"
  Category Label: "rule not met"
- Mol Smiles: "Cc1ccc(C(N)=O)c(CC[C@]2(O)CCC3=Cc4c(cnn4-c4ccc(F)cc4)C[C@@]32C)c1"
  Category Label: "rule met"
- Mol Smiles: "C[C@]12Cc3cnn(-c4ccc(F)c(F)c4)c3C=C1CC[C@@]2(O)CCc1ccccc1C(N)=O"
  Category Label: "rule met"
- Mol Smiles: "CC(C)NC(=O)c1ccccc1CC[C@]1(O)CCC2=Cc3c(cnn3-c3ccc(F)cc3)C[C@@]21C"
  Category Label: "rule not met"

---

Emax listing for selected compounds.
molecular target: human GR (Homo sapiens, UniProt P04150); assay: Transrepression Assay (GITAR), TNFα-β-lactamase reporter gene in U937 cells; assay type: cell-based; parameters: U937 cells contain an endogenous glucocorticoid receptor (GR); endogenous in cells; host or cells: U937 cells stably transfected with the TNF-α promoter/β-lactamase reporter only; conditions: U-937; Table 1; U937 cells; activity repressed by 100 nM dexamethasone = 100%; read-out: Transrepression U937 Cells GITAR Emax (%)

- Compound: "C[C@]12Cc3cnn(-c4ccccc4)c3C=C1CC[C@@]2(O)CCc1ccccc1C(=O)NC1CC1"
  Value Units: "%"
  Emax: 64
- Compound: "CCC(O)(C(N)=O)c1ccccc1CC[C@]1(O)CCC2=Cc3c(cnn3-c3ccc(F)cc3)C[C@@]21C (stereo partly shown)"
  Value Units: "%"
  Emax: 68
- Compound: "C[C@]12Cc3cnn(-c4ccc(F)cc4)c3C=C1CC[C@@]2(O)CCc1cccc(F)c1CC(N)=O"
  Value Units: "%"
  Emax: 78
- Compound: "C[C@]12Cc3cnn(-c4ccc(F)cc4)c3C=C1CC[C@@]2(O)CCc1cccc(F)c1[C@@H](N)C(F)(F)F"
  Value Units: "%"
  Emax: 77
- Compound: "CC(=O)Cc1ccccc1CC[C@]1(O)CCC2=Cc3c(cnn3-c3ccc(F)cc3)C[C@@]21C"
  Value Units: "%"
  Emax: 63
- Compound: "CC(C)CNC(=O)c1c(F)cccc1CC[C@]1(O)CCC2=Cc3c(cnn3-c3ccc(F)cc3)C[C@@]21C"
  Value Units: "%"
  Emax: 79
- Compound: "C[C@]12Cc3cnn(-c4ccc(Cl)cc4)c3C=C1CC[C@@]2(O)CCc1cccc(F)c1C(N)=O"
  Value Units: "%"
  Emax: 80

---

Target: glucocorticoid receptor (GR) (Homo sapiens)
Construct: endogenous in cells; host or cells: HeLa (ATCC) cell lysate supernatant
Sequence (P04150 1-777): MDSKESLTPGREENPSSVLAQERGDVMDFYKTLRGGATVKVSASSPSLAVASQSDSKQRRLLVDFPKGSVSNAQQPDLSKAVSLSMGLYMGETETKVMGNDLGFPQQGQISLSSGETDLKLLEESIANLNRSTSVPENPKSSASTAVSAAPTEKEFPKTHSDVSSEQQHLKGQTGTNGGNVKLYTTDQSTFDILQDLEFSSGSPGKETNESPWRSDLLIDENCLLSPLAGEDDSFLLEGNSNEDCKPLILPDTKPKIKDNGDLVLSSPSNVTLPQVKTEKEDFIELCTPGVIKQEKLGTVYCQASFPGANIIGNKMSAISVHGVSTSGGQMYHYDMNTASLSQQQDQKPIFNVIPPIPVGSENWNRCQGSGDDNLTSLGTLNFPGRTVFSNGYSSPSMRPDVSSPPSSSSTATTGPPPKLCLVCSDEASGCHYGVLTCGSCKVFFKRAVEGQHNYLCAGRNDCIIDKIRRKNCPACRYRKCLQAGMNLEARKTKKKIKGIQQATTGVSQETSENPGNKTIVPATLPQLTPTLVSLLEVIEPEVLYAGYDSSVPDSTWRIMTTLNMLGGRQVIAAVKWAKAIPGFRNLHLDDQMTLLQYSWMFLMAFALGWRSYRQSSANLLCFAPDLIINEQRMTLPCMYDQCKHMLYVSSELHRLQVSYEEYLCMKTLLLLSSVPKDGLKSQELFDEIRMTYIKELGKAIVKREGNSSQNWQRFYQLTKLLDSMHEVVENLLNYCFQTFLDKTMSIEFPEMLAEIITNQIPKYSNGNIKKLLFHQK
Test: Ligand binding assay (GR BIND), 3H-dexamethasone displacement, HeLa cell lysate
Settings: Table 1; HeLa cell lysate, 3H-DEX
Field 'label' (enum: satisfied / not satisfied). Set to satisfied when Ki is strictly under 1 nM; else not satisfied.

- Compound: "CCNC(=O)c1ccccc1CC[C@]1(O)CCC2=Cc3c(cnn3-c3ccc(F)cc3)C[C@@]21C"
  Category Label: "not satisfied"
- Compound: "CN(C)S(=O)(=O)Nc1c(F)cccc1CC[C@]1(O)CCC2=Cc3c(cnn3-c3ccc(F)cc3)C[C@@]21C"
  Category Label: "not satisfied"
- Compound: "CCCNC(=O)c1ccccc1CC[C@]1(O)CCC2=Cc3c(cnn3-c3ccc(F)cc3)C[C@@]21C"
  Category Label: "not satisfied"
- Compound: "C[C@]12Cc3cnn(-c4ccc(F)cc4)c3C=C1CC[C@@]2(O)CCc1cccc(F)c1CC(N)=O"
  Category Label: "not satisfied"
- Compound: "CCC(O)(C(N)=O)c1ccccc1CC[C@]1(O)CCC2=Cc3c(cnn3-c3ccc(F)cc3)C[C@@]21C (stereo partly drawn)"
  Category Label: "not satisfied"
- Compound: "COC(=O)C(C)(C)NC(=O)c1ccccc1CC[C@]1(O)CCC2=Cc3c(cnn3-c3ccc(F)cc3)C[C@@]21C"
  Category Label: "satisfied"
- Compound: "CCNC(=O)c1ccccc1CC[C@]1(O)CCC2=Cc3c(cnn3-c3ccc(F)c(F)c3)C[C@@]21C"
  Category Label: "not satisfied"
- Compound: "C[C@]12Cc3cnn(-c4ccccc4)c3C=C1CC[C@@]2(O)CCc1ccccc1C(=O)NC1CC1"
  Category Label: "not satisfied"
- Compound: "C[C@]12Cc3cnn(-c4ccc(F)cc4)c3C=C1CC[C@@]2(O)CCc1ccccc1N1CCC1=O"
  Category Label: "not satisfied"
- Compound: "C[C@]12Cc3cnn(-c4ccc(F)cc4)c3C=C1CC[C@@]2(O)CCc1ccccc1C1(NS(=O)(=O)C2CC2)CC1"
  Category Label: "satisfied"
- Compound: "COC(=O)C1(NC(=O)c2ccccc2CC[C@]2(O)CCC3=Cc4c(cnn4-c4ccc(F)cc4)C[C@@]32C)CC1"
  Category Label: "not satisfied"
- Compound: "C[C@]12Cc3cnn(-c4ccc(F)cc4)c3C=C1CC[C@@]2(O)CCc1ccccc1C(=O)N1CCCCC1"
  Category Label: "not satisfied"
- Compound: "C=C(C)CNC(=O)c1ccccc1CC[C@]1(O)CCC2=Cc3c(cnn3-c3ccc(F)cc3)C[C@@]21C"
  Category Label: "satisfied"
- Compound: "CCS(=O)(=O)c1ccccc1CC[C@]1(O)CCC2=Cc3c(cnn3-c3ccc(F)cc3)C[C@@]21C"
  Category Label: "not satisfied"
- Compound: "CC1(NC(=O)c2ccccc2CC[C@]2(O)CCC3=Cc4c(cnn4-c4ccc(F)cc4)C[C@@]32C)CC1"
  Category Label: "not satisfied"

src = patent US8119681B2
